Assay: self-splicing fitness, log relative to wild type (ln ratio); higher = more splicing; Tetrahymena group I intron in knt gene, E. coli kanamycin selection, DiMSum; sequences stand for … in CUCUCU…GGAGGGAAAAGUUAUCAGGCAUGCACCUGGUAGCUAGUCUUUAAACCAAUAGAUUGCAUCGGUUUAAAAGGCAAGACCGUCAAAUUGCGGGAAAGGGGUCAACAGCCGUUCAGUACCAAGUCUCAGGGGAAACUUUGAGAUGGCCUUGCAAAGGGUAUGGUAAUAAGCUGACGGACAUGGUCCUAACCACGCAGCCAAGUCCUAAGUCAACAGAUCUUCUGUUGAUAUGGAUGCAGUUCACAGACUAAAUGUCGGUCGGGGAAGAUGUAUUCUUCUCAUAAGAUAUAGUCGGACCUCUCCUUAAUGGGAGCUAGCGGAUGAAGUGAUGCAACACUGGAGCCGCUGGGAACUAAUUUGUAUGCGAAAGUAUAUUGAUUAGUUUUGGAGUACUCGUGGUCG;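 note: selection with 25 µg/mL kanamycin versus none on LB agar overnight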
Conditions: 30 °C
Endpoint label: self-splicing fitness (ln)

UCCCAGCAAUAUUACGGAUA -1.51
AAGGAGCAAUAUUACGCGAA -1.94
AACCAGCAAUAUUACGCUGU -3.49
GUGCAGCAAUAUUACGACAA -0.582
UCAAAGCAAUAUUACGAGGA -2.69
GUAUAGCAAUAUUACGCACC -1.85
GGUAAGCAAUAUUACGGUCC -1.57
UAGCAGCAAUAUUACGGAUC -3.34
UAUAAGCAAUAUUACGCAAU -2.11
AAAUAGCAAUAUUACGUGGC -4.1
GCCAAGCAAUAUUACGUAUC -1.66
GUAAAGCAAUAUUACGGUAU -0.495
AGCGAGCAAUAUUACGCCAU -4.12
CUCGAGCAAUAUUACGAAAU -3.36
GGAUAGCAAUAUUACGCCUC -2.02
CAGUAGCAAUAUUACGAUGU -2.34
AAAUAGCAAUAUUACGGCAA -0.542
ACGGAGCAAUAUUACGGCGA -2.01
GGUUAGCAAUAUUACGUAUC -0.749
GUUCAGCAAUAUUACGGAGG -2.38
ACGAAGCAAUAUUACGUUAU -3.54
GCGCAGCAAUAUUACGGAUU -0.79
UGGGAGCAAUAUUACGGGUA -2.68
ACUAAGCAAUAUUACGCCAC -2.45
AUGGAGCAAUAUUACGGUCU -1.54
CACUAGCAAUAUUACGGGCG -0.464
ACGCAGCAAUAUUACGACGC 0.036
CGUAAGCAAUAUUACGACAC -2.84
CGACAGCAAUAUUACGGCCU -1.57
UCAGAGCAAUAUUACGAAGG -2.15
GACAAGCAAUAUUACGGCAA -0.787
CAUGAGCAAUAUUACGCAGG -3.17
AUGGAGCAAUAUUACGCCAA -1.45
GUGUAGCAAUAUUACGAAAC -3.2
ACUAAGCAAUAUUACGAUAC -2.39
ACCAAGCAAUAUUACGCGUA -1.11
AGAGAGCAAUAUUACGUGGU -3.49
CAGCAGCAAUAUUACGUGAC -3.41
CAAAAGCAAUAUUACGAUUA -0.53
AACCAGCAAUAUUACGUGGU -3.19
CUUGAGCAAUAUUACGUACG -1.44
GAGCAGCAAUAUUACGACGU -0.383
GACAAGCAAUAUUACGACGA -0.615
AAUUAGCAAUAUUACGUGCC -1.48
GAGAAGCAAUAUUACGACUC -2.38
GGAUAGCAAUAUUACGAACG 0.209
GGGUAGCAAUAUUACGUCUG -1.21
GGGCAGCAAUAUUACGUGCU -3.46
CGAUAGCAAUAUUACGGUAA -3.58
AAAAAGCAAUAUUACGAUAA -1.03
GCAUAGCAAUAUUACGUUGC -3.65
GUGCAGCAAUAUUACGACUG -4.5
